Target: human IL-21R expressed on cells (human, UniProt Q9HBE5 20-538)
Sequence (Q9HBE5 20-538 limits assumed): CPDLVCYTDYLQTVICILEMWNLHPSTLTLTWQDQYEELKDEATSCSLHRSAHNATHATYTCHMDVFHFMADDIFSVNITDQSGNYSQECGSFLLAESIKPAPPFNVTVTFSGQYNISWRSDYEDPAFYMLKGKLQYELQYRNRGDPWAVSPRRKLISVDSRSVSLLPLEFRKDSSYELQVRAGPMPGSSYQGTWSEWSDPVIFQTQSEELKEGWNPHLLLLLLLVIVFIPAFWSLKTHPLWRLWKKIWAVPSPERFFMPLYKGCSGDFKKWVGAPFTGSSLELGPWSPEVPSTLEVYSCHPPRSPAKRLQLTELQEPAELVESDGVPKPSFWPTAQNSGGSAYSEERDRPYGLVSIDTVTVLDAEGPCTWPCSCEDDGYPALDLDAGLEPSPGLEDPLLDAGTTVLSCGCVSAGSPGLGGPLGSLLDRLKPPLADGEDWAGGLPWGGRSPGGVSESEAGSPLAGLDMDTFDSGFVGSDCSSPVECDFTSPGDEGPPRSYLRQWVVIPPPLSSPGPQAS
Assay: cell-based or functional assay
Measured Human IL-21R-TF1 Proliferation IC50 by item
quantity_name: Human IL-21R-TF1 Proliferation IC50

1) AbP (antibody, human IgG1, V domains shown, CDR3 graft, residue limits derived as for m29; also called VHP/VL20; VHPTM/VL20) VH: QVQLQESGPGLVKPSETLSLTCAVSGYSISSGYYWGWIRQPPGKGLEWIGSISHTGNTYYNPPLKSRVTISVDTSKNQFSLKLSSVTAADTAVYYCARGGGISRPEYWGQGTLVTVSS VL: SSELTQDPAVSVALGQTVRITCQGDSLRTYYASWYQQKPGQAPVLVIYGKHKRPSGIPDRFSGSSSGNTASLTITGAQAEDEADYYCVSRSAKGNPHVLFGGGTQLTVL	3.48 nM
2) AbH (antibody, IgG1, V domains shown, As for AbA: IgG1/lambda, CDR3 graft, residue limits derived; also called VHP/VL19) VH: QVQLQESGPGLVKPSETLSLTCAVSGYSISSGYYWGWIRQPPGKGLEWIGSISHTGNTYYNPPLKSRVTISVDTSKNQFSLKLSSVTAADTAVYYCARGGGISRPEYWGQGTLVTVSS VL: SSELTQDPAVSVALGQTVRITCQGDSLRTYYASWYQQKPGQAPVLVIYGKHKRPSGIPDRFSGSSSGNTASLTITGAQAEDEADYYCVARAVRGNPHVLFGGGTQLTVL	3.64 nM
3) AbT (antibody, human IgG1, V domains shown, CDR3 graft, residue limits derived as for m29; also called VHP/VL9; VHPTM/VL9) VH: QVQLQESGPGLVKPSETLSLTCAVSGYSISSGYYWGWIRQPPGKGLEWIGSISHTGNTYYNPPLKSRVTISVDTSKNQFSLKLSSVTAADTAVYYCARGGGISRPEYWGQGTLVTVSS VL: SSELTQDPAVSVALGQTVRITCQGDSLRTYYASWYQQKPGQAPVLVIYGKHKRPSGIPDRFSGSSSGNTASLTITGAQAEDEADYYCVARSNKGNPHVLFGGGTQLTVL	3.26 nM
4) AbA (antibody, V domains shown, Human IgG1/lambda, transiently expressed; also called VHP/VL2) VH: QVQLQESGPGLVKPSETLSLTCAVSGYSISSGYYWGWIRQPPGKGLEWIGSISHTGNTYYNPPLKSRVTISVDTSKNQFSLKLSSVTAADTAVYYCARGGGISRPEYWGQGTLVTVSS VL: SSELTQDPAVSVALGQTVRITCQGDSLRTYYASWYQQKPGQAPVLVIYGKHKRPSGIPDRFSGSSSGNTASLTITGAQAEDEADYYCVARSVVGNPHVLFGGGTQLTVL	3.8 nM
5) AbI (antibody, IgG1, V domains shown, As for AbA: IgG1/lambda, CDR3 graft, residue limits derived; also called VHP/VL24) VH: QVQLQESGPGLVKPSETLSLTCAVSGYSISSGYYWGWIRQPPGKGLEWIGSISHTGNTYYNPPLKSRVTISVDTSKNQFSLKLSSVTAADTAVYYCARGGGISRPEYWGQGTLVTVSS VL: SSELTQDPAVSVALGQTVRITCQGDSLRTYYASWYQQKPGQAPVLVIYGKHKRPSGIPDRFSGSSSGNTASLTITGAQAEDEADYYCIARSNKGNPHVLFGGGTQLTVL	3.8 nM
6) AbJ (antibody, IgG1, V domains shown, As for AbA: IgG1/lambda, CDR3 graft, residue limits derived; also called VH3/VLP) VH: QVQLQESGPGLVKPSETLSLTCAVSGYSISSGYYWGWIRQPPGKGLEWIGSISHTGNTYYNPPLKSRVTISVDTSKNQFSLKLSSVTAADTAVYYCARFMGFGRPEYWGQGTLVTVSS VL: SSELTQDPAVSVALGQTVRITCQGDSLRTYYASWYQQKPGQAPVLVIYGKHKRPSGIPDRFSGSSSGNTASLTITGAQAEDEADYYCNSRDSSGNPHVLFGGGTQLTVL	4.6 nM
7) AbR (antibody, human IgG1, V domains shown, CDR3 graft, residue limits derived as for m29; also called VH3/VL18; VH3DM/VL18) VH: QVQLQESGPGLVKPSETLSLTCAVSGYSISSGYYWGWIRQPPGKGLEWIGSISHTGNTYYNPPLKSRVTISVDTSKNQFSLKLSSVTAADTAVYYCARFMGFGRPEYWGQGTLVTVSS VL: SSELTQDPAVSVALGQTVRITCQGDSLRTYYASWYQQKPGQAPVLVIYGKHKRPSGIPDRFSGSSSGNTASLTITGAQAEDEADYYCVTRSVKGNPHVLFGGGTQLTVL	3.94 nM
8) AbS (antibody, V domains shown, CDR3 graft, residue limits derived as for m29; also called VHP/VL6; VHPTM/VL6) VH: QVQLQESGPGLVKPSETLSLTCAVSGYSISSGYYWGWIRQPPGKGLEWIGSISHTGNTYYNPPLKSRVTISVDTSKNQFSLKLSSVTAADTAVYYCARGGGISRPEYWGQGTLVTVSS VL: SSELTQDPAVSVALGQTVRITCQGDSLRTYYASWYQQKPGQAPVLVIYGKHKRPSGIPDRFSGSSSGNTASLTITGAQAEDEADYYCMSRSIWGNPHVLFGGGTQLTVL	5 nM
9) AbF (antibody, IgG1, V domains shown, As for AbA: IgG1/lambda, CDR3 graft, residue limits derived; also called VHP/VL17) VH: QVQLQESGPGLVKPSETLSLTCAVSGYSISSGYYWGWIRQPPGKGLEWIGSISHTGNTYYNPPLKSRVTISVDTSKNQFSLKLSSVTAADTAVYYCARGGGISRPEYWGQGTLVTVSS VL: SSELTQDPAVSVALGQTVRITCQGDSLRTYYASWYQQKPGQAPVLVIYGKHKRPSGIPDRFSGSSSGNTASLTITGAQAEDEADYYCSTRSRKGNPHVLFGGGTQLTVL	2.41 nM
10) AbM (antibody, IgG1, V domains shown, As for AbA: IgG1/lambda, CDR3 graft, residue limits derived; also called VH6/VL13) VH: QVQLQESGPGLVKPSETLSLTCAVSGYSISSGYYWGWIRQPPGKGLEWIGSISHTGNTYYNPPLKSRVTISVDTSKNQFSLKLSSVTAADTAVYYCARFFGFGRPEYWGQGTLVTVSS VL: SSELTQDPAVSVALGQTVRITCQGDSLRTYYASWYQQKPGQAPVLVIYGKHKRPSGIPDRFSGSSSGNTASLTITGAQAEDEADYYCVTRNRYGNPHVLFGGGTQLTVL	4.22 nM
